Target System: T1, human alpha4beta7 (human, UniProt P13612 34-1032; P26010 20-798)
T1 construct: whole, on cells; also called a4b7; wt
T1 sequence (P13612 34-1032, chain 1 of 2): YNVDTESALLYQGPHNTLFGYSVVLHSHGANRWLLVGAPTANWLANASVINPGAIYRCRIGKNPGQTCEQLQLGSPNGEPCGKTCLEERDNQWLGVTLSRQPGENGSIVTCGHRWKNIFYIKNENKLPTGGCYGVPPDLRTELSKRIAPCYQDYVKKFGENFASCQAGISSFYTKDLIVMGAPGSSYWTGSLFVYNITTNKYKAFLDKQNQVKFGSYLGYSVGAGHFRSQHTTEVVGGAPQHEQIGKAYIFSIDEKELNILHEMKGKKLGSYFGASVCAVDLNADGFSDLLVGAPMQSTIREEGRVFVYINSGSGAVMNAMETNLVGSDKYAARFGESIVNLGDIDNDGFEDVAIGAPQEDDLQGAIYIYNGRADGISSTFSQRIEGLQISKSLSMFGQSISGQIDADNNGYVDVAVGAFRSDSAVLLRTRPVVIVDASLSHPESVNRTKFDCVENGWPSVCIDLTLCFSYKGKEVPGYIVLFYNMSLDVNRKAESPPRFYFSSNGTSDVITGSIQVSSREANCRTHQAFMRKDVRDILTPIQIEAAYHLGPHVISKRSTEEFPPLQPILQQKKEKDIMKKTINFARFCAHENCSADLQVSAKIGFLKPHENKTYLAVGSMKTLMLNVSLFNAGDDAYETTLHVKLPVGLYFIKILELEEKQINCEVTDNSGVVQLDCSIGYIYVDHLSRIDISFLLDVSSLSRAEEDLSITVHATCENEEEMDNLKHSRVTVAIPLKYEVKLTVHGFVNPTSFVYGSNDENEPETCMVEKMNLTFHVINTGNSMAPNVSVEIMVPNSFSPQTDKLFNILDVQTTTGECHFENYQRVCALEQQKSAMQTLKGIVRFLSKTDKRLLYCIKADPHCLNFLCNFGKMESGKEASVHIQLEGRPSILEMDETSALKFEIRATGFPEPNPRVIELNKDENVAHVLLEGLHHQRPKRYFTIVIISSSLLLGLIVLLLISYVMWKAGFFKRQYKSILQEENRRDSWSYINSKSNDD
T1 sequence (P26010 20-798, chain 2 of 2): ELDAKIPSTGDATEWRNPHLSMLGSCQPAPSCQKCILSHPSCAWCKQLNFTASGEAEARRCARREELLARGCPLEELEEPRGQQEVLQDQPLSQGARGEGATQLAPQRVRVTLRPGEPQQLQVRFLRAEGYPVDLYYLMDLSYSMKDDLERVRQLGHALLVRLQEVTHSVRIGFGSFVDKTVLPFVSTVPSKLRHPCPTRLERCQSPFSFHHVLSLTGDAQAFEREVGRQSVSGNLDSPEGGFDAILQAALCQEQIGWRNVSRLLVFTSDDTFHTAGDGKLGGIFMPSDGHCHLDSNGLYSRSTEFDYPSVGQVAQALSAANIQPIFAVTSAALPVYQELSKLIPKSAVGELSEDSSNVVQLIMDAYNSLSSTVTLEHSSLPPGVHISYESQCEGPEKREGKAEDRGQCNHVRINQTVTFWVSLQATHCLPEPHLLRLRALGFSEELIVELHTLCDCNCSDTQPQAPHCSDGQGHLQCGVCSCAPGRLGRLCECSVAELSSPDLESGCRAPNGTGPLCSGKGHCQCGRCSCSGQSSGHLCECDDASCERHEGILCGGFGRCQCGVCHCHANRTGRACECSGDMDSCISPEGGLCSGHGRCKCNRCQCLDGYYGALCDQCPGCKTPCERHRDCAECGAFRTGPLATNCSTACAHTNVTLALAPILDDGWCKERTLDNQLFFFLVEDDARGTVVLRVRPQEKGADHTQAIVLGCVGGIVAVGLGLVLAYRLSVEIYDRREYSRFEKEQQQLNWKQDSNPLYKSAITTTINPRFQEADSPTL
Experiment: FACS on transfected 293 cells, 1 microG/ml, PE anti-human IgG
Metric Name: fluorescence staining intensity (geometric mean)

- Binder: "1A10 (antibody, V domains shown, Fully human monoclonal from XenoMouse XG2kl or XG4kl mice (human IgG2 or IgG4); kappa light chain; also called 1A10K; 1A10H) VH: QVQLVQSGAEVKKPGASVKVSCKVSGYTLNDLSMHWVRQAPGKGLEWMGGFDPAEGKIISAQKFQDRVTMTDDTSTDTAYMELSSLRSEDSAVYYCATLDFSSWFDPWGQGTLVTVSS VL: DIQMTQSPSSVSASVGDRVTITCRASQGVSSWLAWYQQKPGMAPKLLIYAASILQSGVPSRFSGSGSGTDFTLTISSLQPEDFATYYCQQANSFPWTFGQGTKVEIK"
  Test Result: 122
- Binder: "26G2 (antibody, V domains shown, Fully human monoclonal from XenoMouse (human IgG2 or IgG4); kappa light chain; also called 26G2k; 26G2K) VH: QVQLVESGGGLVKPGGSLRLSCAASGFTFSDYYMSWIRQAPGKGLEWVSYISSIGSAIHYADSVKGRFTISRDNAKNSLYLQMNSLRAEDTAVYYCAREYSSGWAYFDYWGQGTLVTVSS VL: DIQMTQSPSSVSASVGDRVTITCRASQDISSWLAWYQQKPGTAPKVLIYSASSLQNGVPSRFSGRGSGTDFALTISSLQPEDFATYYCQQADSFPWTFGRGTKVEIK"
  Test Result: 99
- Binder: "22B2 (antibody, V domains shown, Fully human monoclonal from XenoMouse (human IgG2 or IgG4); kappa light chain; also called 22B2K; 22B2H) VH: EVQLVQSGAEVKEPGESLKISCKGSGYIFTSYWIAWVRQLPGKGLEWMGIIDPNDSDTRYSPSFQGQVTISADKSIHTAYLQWSSLKASDTAMYYCATHRLWLGTLPGGFYIWGQGTMVTVSS VL: DVQMTQSPSSLSASVGDRVTITCQASQDITDYLNWYQQKPGKAPKLLIYDTSNLEAGVPSRFSGSGSGTDFTFTISSLQPEDIATYYCQQYDILPYSFGQGTDLEIK"
  Test Result: 97
- Binder: "2F12 (antibody, V domains shown, Fully human monoclonal from XenoMouse (human IgG2 or IgG4); kappa light chain; also called 2F12K; 2F12H) VH: QVQLVQSGAEVKKPGASVKVSCKVSGYTVTDLSMHWVRQAPGKGLEWMGGFDPQDGETIYAQKFQGRVTMTEDTSTDTAYMELRSLRSEDTAVYYCTTESSSAWFDPWGQGTLVTVSS VL: DIQMTQSPSSVFASVGDRVTITCRASQGISSWLAWYQQKPGKAPNLLIYGASSLQNGVPLRFSGSGSGTDFTLTISSLQPEDFATYYCQQANSFPWTFGQGTKVEIK"
  Test Result: 129
- Binder: "19G6 (antibody, V domains shown, Fully human monoclonal from XenoMouse (human IgG2 or IgG4); kappa light chain; also called 19G6K; 19G6H) VH: QVQLVESGGDLVKPGGSLRLSCAASGFTFSDYYMSWIRQAPGKGLEWISYISSSGSTMYYADSVKGRFTISRVNAKNSLYLQMNSLRAEDTAVYYCARDRSSGLVSFDYWGQGTLVTVSS VL: DIQMTQSPSSLSASVGDRVTISCQASQDINTYLNWYQQKPGKVPKLLIYDASNLETGVPSRFSGSGSGTDFTFTISGLQPEDIATYYCQQFDNLPITFGQGTRLEIK"
  Test Result: 94
